experimental_system: PI3Kα (Homo sapiens (Human), UniProt P42336)
Sequence (P42336 whole entry): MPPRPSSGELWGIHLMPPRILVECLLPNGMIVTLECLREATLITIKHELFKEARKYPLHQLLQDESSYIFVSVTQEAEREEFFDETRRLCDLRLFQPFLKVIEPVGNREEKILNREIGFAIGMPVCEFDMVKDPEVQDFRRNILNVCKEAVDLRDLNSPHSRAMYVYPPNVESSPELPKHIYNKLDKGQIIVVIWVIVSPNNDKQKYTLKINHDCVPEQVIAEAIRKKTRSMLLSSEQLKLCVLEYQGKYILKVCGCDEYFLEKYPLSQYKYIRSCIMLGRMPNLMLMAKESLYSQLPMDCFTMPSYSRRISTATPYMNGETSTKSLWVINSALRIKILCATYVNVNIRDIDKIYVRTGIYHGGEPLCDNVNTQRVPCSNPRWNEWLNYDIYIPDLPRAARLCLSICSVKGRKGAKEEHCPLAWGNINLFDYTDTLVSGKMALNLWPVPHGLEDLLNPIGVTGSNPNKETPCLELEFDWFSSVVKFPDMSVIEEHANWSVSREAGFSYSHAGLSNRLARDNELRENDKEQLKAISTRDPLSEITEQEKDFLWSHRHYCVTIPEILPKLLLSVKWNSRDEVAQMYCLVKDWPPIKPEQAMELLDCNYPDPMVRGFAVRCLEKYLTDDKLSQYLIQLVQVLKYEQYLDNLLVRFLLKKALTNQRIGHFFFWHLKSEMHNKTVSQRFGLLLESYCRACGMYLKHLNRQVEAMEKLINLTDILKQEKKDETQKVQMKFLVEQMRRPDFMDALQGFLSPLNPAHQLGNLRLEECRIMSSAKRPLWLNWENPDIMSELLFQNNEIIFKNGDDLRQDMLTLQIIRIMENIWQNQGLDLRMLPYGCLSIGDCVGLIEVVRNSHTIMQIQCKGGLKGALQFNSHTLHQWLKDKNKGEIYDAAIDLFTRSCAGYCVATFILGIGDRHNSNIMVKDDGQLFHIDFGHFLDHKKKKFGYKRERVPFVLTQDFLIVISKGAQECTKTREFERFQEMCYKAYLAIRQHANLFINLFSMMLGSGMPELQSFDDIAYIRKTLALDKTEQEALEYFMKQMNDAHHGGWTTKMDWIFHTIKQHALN
Sequence (P27986 whole entry partner): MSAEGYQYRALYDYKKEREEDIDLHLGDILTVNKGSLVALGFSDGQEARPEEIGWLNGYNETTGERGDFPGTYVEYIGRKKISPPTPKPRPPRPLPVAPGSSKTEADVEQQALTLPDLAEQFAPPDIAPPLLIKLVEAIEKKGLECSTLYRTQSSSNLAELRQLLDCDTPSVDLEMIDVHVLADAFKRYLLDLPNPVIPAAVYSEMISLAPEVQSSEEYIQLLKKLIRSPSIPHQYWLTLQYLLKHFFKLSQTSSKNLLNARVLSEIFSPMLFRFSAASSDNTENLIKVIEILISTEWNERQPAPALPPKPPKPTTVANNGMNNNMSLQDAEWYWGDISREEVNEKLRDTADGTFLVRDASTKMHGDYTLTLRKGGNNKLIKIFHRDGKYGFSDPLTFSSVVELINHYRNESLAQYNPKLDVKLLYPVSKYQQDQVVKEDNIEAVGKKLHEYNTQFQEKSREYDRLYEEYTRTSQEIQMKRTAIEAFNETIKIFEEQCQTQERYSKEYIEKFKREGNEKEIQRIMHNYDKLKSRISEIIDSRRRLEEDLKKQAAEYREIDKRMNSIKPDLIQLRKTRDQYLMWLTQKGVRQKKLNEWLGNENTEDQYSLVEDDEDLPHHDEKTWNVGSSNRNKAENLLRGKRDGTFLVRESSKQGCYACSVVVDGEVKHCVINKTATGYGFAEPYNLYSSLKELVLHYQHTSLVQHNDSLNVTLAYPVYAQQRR
protocol_notes: PI3Kα enzyme activity inhibition IC50 evaluation assay
Type: biochemical
cond: ratio PI3Kα vs PI3Kδ
Please mark true (1) if the recorded α/δ selectivity is equal to or greater than 80, and false (0) if it falls below.

{"columns": ["molecule", "discrete_label"],
 "data": [
  ["Cc1cn(-c2nc(N3CCOCC3)nc3c(CN4CCN(C(=O)C(C)C)CC4)csc23)c(C)n1 [Compound 20]", "false (0)"],
  ["COc1ncc(-c2nc(N3CCOCC3)nc3c(CN4CCn5cnnc5C4)c(C)sc23)cc1NS(C)(=O)=O [Compound 116]", "false (0)"],
  ["CC(=O)N1CCN(Cc2csc3c(-c4cccc5[nH]ccc45)nc(N4CCOCC4)nc23)CC1 [Compound 14]", "true (1)"],
  ["COc1ncc(-c2nc(N3CCOCC3)nc3c(CN4CCN(C(=O)C(C)C)CC4)csc23)cc1NS(C)(=O)=O [Compound 47]", "false (0)"],
  ["COc1ncc(-c2nc(N3CCOCC3)nc3c(CN4CCC(N5CCC5)CC4)c(C)sc23)cc1NS(C)(=O)=O [Compound 148]", "true (1)"],
  ["COc1ncc(-c2nc(N3CCOCC3)nc3cc(C)sc23)cc1NS(C)(=O)=O [Compound 97]", "false (0)"]
]}

Every entry's value here was drawn from patent US9745321B2.
